- subject-of-test: Coagulation factor X (Homo sapiens)
- Sequence (P00742 41-179 limits assumed): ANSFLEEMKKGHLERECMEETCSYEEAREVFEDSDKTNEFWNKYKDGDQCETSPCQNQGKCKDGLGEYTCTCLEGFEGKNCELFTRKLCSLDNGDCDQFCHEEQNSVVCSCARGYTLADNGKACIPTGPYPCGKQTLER
- Sequence (P00742 235-488 limits assumed): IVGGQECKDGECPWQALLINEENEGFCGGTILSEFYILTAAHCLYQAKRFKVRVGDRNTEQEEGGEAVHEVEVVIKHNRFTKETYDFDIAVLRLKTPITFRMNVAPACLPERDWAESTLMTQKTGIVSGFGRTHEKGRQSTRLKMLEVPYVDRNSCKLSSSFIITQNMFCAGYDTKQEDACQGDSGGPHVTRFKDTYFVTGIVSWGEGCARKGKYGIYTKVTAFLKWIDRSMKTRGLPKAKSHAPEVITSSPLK
- protocol-description: Inhibition of human F10a assessed as decrease in p-nitroaniline cleavage from pefachrome F10a at 0.5 uM preincubated for 10 mins followed by substrate addition measured after 20 mins relative to control
property-label: inhibition (%)

                                   compound  measured_value
0  COc1ccc(-c2ncn(Cc3nn(-c4ccc(OC)cc4)c4c3CCN(c3ccc(N5CCCCC5=O)cc3)C4=O)n2)cc1            66.1
1  COc1ccc(-n2nc(Cn3cc(C#N)nn3)c3c2C(=O)N(c2ccc(N4CCCCC4=O)cc2)CC3)cc1            86.7
2  COc1ccc(-n2nc(-n3cnnc3C)c3c2C(=O)N(c2ccc(N4CCCCC4=O)cc2)CC3)cc1            55.1
3  COc1ccc(-n2nc(Cn3cnc(-c4ccc(F)cc4)n3)c3c2C(=O)N(c2ccc(N4CCCCC4=O)cc2)CC3)cc1            60.6
4  COc1ccc(-n2nc(-n3cnnc3CN3CCOCC3)c3c2C(=O)N(c2ccc(N4CCCCC4=O)cc2)CC3)cc1            94.5
